Target: PRKCE (human) (UniProt Q02156)
Sequence (Q02156 whole entry, looked up): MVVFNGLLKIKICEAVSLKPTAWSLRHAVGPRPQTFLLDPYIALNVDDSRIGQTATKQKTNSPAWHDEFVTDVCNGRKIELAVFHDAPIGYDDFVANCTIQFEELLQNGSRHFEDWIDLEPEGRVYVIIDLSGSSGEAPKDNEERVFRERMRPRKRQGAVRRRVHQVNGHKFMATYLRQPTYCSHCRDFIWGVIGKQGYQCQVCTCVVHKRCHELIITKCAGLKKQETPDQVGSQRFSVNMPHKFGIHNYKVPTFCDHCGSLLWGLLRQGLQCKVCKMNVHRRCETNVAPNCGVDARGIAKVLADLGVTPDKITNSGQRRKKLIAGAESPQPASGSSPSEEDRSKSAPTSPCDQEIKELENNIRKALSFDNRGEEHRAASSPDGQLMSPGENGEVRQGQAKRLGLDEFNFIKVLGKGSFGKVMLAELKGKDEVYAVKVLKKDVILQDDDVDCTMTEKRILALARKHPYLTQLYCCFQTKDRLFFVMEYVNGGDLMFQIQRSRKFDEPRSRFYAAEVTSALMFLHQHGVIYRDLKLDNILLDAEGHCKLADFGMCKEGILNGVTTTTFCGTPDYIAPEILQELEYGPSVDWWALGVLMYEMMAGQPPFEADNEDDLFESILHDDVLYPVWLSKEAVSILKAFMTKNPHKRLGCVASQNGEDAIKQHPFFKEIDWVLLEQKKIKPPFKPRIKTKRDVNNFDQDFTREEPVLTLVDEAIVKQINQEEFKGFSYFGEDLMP
Experiment: radiometric filter-binding kinase assay, Kinase HotSpot
Details: compound 0.5 µM; ATP 10 µM
Could you label it TRUE if measured residual activity is 90% or higher, and FALSE otherwise?

smiles-data: O=C(CCCc1ccc(-c2ccccc2F)cc1)Nc1ccc(O)cc1
label: TRUE
//
smiles-data: CC(=O)O/N=C1\C(=C2\C(=O)Nc3cc(Br)ccc32)Nc2ccccc21
label: FALSE
//
smiles-data: Cn1sc(=O)n(Cc2ccccc2)c1=O
label: TRUE

----------
// reported residual activity for each item listed
Molecular target: MAP3K2 (human) (UniProt Q9Y2U5)
Sequence (Q9Y2U5 whole entry, looked up): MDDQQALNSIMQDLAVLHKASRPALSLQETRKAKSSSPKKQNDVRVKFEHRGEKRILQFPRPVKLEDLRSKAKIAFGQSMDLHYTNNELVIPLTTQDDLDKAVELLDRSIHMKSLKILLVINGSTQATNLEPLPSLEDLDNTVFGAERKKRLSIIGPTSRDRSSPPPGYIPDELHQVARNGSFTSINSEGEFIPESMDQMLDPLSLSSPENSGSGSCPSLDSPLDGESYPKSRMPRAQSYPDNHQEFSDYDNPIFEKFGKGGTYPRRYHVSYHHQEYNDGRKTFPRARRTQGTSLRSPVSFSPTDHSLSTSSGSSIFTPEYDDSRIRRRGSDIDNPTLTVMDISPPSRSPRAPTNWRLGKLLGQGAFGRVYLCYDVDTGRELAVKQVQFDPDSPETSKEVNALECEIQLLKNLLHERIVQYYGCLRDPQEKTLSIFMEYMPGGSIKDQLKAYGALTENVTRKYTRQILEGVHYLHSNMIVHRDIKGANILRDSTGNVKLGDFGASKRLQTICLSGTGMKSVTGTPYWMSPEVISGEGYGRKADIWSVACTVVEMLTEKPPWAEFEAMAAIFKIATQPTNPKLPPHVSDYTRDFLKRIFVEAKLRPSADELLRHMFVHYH
Test: radiometric filter-binding kinase assay, Kinase HotSpot
Settings: compound 0.5 µM; ATP 10 µM

compound: Cn1nc2c3c(cccc31)C(=O)c1ccccc1-2
unit-tag: %
residual activity: 103
--
compound: O=C(O)/C=C/c1cc(Br)c(Br)c(Br)c1Br
unit-tag: %
residual activity: 102
--
compound: O=C1NC(=O)/C(=C\c2ccc3nccnc3c2)S1
unit-tag: %
residual activity: 108
--
compound: O=C1Nc2ccccc2/C1=C1\Nc2ccccc2\C1=N/O
unit-tag: %
residual activity: 94.6
--
compound: COc1ccc(CNC(=O)Nc2ncc([N+](=O)[O-])s2)cc1
unit-tag: %
residual activity: 94.1
--
compound: CCn1cnc2c(Nc3cccc(Cl)c3)nc(N[C@@H]3CCCC[C@@H]3N)nc21
unit-tag: %
residual activity: 91.7
--
compound: O=C1NC(=O)C(c2c[nH]c3ccccc23)=C1c1c[nH]c2ccccc12
unit-tag: %
residual activity: 107
--
compound: O=C1Nc2ccccc2/C1=C1/Nc2ccccc2/C1=N\OCCC(O)CO (stereo unspecified)
unit-tag: %
residual activity: 60.6
--
compound: O=C1Cc2c([nH]c3ccc(Br)cc23)-c2ccccc2N1
unit-tag: %
residual activity: 94.2
--
compound: Nc1nccc(-c2c(-c3ccc(F)cc3)ncn2C2CCNCC2)n1
unit-tag: %
residual activity: 94
--
compound: CN(C)C[C@H]1CCn2c(c(C3=C(c4cn(C)c5ccccc45)C(=O)NC3=O)c3ccccc32)C1
unit-tag: %
residual activity: 94.6

----------
// reported residual activity for each item listed
Target: UniProt:P08069
Sequence (P08069 whole entry, looked up): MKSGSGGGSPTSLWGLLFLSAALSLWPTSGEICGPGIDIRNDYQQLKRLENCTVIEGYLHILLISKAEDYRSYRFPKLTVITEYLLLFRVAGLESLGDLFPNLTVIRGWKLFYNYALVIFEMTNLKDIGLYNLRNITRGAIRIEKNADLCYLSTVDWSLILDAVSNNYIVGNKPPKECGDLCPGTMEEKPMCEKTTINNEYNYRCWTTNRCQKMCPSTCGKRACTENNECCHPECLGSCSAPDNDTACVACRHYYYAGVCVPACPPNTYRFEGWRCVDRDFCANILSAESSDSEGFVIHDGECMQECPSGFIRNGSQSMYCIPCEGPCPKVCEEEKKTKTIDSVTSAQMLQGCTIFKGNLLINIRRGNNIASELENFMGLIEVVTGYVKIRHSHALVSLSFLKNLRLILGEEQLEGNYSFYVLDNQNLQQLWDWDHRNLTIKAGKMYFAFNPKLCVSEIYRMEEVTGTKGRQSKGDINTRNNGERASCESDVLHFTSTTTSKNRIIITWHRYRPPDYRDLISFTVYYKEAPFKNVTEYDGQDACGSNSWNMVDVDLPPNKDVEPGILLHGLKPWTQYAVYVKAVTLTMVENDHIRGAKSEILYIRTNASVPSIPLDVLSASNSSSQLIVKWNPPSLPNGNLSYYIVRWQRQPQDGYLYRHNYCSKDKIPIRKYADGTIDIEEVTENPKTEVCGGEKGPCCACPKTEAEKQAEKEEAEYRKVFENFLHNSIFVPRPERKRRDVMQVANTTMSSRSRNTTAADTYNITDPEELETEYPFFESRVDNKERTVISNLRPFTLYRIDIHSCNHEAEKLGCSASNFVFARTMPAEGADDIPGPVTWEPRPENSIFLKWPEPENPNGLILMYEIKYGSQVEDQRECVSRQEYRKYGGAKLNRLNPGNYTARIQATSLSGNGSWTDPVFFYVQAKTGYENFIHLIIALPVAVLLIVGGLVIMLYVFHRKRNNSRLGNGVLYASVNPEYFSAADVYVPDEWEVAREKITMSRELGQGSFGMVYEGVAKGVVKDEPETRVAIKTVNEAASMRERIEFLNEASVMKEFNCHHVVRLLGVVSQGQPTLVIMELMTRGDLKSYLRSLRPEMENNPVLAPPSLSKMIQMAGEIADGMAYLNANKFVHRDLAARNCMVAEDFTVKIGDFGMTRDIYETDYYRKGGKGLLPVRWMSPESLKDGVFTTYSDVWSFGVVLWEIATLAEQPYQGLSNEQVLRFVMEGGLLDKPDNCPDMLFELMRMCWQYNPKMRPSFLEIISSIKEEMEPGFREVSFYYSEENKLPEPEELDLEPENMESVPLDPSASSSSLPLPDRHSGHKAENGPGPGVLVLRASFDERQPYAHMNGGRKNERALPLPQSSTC
Assay: radiometric filter-binding kinase assay, Kinase HotSpot
Details: compound 0.5 µM; ATP 10 µM
readout: residual activity (%)

smiles-data: Nc1nccc(-c2c(-c3ccc(F)cc3)ncn2C2CCNCC2)n1
readout: residual activity
unit-tag: %
observed: 104
--
smiles-data: O=C1NC(=O)C(c2cn(CCCO)c3ncccc23)=C1c1cnccn1
readout: residual activity
unit-tag: %
observed: 98.4
--
smiles-data: CC(C)c1nn(-c2c(Cl)cccc2Cl)c2nc(Cc3ccc(OCCO)cc3)nc(O)c12
readout: residual activity
unit-tag: %
observed: 24.8
--
smiles-data: CCN(CC)CCCCN1c2ccccc2Oc2ccc(Cl)cc21
readout: residual activity
unit-tag: %
observed: 89.4
--
smiles-data: Oc1ccc(Nc2nc(-c3ccc(Cl)cc3)cs2)cc1
readout: residual activity
unit-tag: %
observed: 102

----------
// reported residual activity for each item listed
Molecular target: CAMKK1 (human)
Assay: radiometric filter-binding kinase assay, Kinase HotSpot
Conditions: compound 0.5 µM; ATP 10 µM
readout: residual activity (%)

smiles-data: O=C1Nc2ccccc2/C1=C1\Nc2ccccc2\C1=N/O
observed: 53.6

smiles-data: CCN(CC)CCCCN1c2ccccc2Oc2ccc(Cl)cc21
observed: 116

smiles-data: COc1ccc(OC)c2c(=S)c3ccccc3[nH]c12
observed: 108

smiles-data: CC(C)c1nn(-c2c(Cl)cccc2Cl)c2nc(Cc3ccc(OCCO)cc3)nc(O)c12
observed: 100

smiles-data: Cn1nc2c3c(cccc31)C(=O)c1ccccc1-2
observed: 102

smiles-data: Oc1ccc(Nc2nc(-c3ccc(Cl)cc3)cs2)cc1
observed: 124
